Values compiled from PubChem BioAssay (NCI).

tested on: CAKI-1 renal; experiment: NCI tumour cell line growth inhibition, 48 h
Field: TGI. Provide a value for each of the molecules that follow.

| Cpd Smiles | Property Measured | Reported Value |
| --- | --- | --- |
| COc1ccc(CCCNC(=O)Cc2ccccc2CO)cc1OC | TGI | > 100 µM |
| Nc1c(C(=O)c2cccc(-c3ccncc3)c2)cnn1-c1ccc(F)cc1 | TGI | > 25 µM |

Continue with the next molecule.
Ask: Tell me the measured TGI of CC1(C)CC(/C=C2/OC(=O)c3ccccc32)=C(C(N)=O)C(=O)O1 , please.
Result: > 100 µM

---

system: SW-620 colon; assay: NCI tumour cell line growth inhibition, 48 h
Property Measured: GI50

| Compound | GI50 |
| --- | --- |
| N=C(N)c1ccc(-c2ccc(-c3ccc(F)cc3)s2)nc1 | 1.84 µM |
| C1CCC(C(CC2CCCCN2)C2CCCCC2)CC1 (stereo not drawn) | 1.77 µM |
| Cc1cnc(NC2CCOCC2)nc1-n1cnc(C(=O)N[C@H](CN)c2cc(F)cc(Cl)c2)c1 | 0.0383 µM |

Give GI50 for all compounds that follow.
1. C/C(=C\COc1ccc2ccc(=O)oc2c1)C1=CC(=O)C(C)(C)O1
2. COC(=O)CCC1=C(C)C(C)=N/C1=C\c1[nH]c(-c2ccc[nH]2)cc1OC
3. NC(=O)c1cc(Cl)ccc1NC(=O)COc1ccccc1
4. CN1C(=O)C23CC4(C56CC78SSC(CO)(C(=O)N7C5Nc5ccccc56)N(C)C8=O)c5ccccc5NC4N2C(=O)C1(CO)SS3 (stereo not drawn)
5. C/C(=C\C(=N\N=C(N)N)c1ccc(Cl)cc1)c1ccc(Cl)cc1

Result:
1: 2.27 µM; 2: 0.385 µM; 3: 2.58 µM; 4: 0.0372 µM; 5: 0.47 µM
